assay: Selectivity index, ratio of HC50 for rabbit erythrocytes to MIC for methicillin-resistant Staphylococcus aureus N315; type: toxicity; conditions: read-out: Selectivity Index
measuredAttribute: selectivity ratio

QUERY: What does the data say about its selectivity ratio? Entry: CC(C)=CCn1c2ccccc2c2c(OCC(O)CNC(=N)N)cccc21 (stereo unspecified)
RESULT: > 128

* * *

test: Cytotoxicity against mouse J774.A1 cells assessed as cell viability at 12.5 ug/ml measured after 24 hrs by CCK8 assay relative to control; format: cell-based; conditions: at 12.5 µg/mL, read-out: Activity
Consider the following compounds and their measured viability at 24 h, 12.5 ug/ml readings.
Output spec: scalar in %, unitless text.

{"compound": "CN[C@H](CC(C)C)C(=O)N[C@H]1C(=O)N[C@@H](CC(N)=O)C(=O)N[C@H]2C(=O)N[C@H]3C(=O)N[C@H](C(=O)N[C@H](C(=O)O)c4cc(O)cc(O)c4-c4cc3ccc4O)[C@H](O)c3ccc(c(Cl)c3)Oc3cc2cc(c3O[C@@H]2O[C@H](CO)[C@@H](O)[C@H](O)[C@H]2O[C@H]2C[C@](C)(N)[C@H](O)[C@H](C)O2)Oc2ccc(cc2Cl)[C@H]1O [VANCOMYCIN]", "viability at 24 h, 12.5 ug/ml, %": 98.2}

QUERY: What does the data say about its viability at 24 h, 12.5 ug/ml? Entry: CC(C)=CCn1c2ccccc2c2c(OCC(O)CNC(=N)N)cccc21 (configuration not stated)
RESULT: 80.5
